# study_target: Protein cereblon/Androgen receptor (Homo sapiens, UniProt P10275+Q96SW2)
# Sequence (P10275 whole entry): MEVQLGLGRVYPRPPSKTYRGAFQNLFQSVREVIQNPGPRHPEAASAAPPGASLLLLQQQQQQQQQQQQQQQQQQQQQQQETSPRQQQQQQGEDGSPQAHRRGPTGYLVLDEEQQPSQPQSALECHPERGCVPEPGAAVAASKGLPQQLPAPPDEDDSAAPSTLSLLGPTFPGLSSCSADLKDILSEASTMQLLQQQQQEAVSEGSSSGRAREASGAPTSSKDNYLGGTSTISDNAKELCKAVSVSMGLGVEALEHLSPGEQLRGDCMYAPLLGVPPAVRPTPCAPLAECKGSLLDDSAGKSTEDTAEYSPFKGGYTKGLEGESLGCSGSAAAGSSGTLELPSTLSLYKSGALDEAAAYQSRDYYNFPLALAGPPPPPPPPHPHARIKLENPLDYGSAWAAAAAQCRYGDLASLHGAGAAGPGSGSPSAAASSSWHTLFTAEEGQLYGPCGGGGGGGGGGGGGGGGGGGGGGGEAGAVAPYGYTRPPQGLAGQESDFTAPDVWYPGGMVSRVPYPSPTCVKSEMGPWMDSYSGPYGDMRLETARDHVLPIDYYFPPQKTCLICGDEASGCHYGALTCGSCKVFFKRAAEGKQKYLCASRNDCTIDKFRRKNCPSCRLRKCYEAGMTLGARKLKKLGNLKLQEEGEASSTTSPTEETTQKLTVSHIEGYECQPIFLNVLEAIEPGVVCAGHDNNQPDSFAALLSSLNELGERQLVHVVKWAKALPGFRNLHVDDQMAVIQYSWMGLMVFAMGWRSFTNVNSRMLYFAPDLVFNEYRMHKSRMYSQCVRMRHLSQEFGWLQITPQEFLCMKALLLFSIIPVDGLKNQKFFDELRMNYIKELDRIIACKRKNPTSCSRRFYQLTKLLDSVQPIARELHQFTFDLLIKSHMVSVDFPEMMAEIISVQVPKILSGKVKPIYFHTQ
# Sequence (Q96SW2 whole entry): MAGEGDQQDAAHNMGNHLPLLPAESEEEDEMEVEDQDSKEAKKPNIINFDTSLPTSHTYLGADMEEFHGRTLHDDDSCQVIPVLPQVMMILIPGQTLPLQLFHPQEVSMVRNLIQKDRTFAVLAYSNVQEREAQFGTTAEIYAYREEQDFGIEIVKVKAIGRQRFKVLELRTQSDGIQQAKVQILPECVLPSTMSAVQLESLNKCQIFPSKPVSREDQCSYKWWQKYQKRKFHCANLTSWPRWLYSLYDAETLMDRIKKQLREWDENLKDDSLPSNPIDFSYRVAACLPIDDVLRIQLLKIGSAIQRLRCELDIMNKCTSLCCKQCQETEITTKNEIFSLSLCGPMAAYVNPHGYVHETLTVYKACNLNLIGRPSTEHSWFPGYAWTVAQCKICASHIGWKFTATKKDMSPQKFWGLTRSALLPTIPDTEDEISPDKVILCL
# experiment_notes: PROTAC activity at CRBN/AR in human dermal papilla cell assessed as induction of AR degradation measured after 24 to 72 hrs by Western blot analysis
# Type: cell-based
quantity_name: DC50

{"compound": "N#Cc1ccc(O[C@H]2CC[C@H](NC(=O)c3ccc(C4CCN(CC5CN(c6ccc7c(c6)C(=O)N(C6CCC(=O)NC6=O)C7=O)C5)CC4)cc3)CC2)cc1Cl (stereo not given in full)", "meas_value": "> 1000 nM"}
{"compound": "N#Cc1ccc(O[C@H]2CC[C@H](NC(=O)c3ccc(C4CCN(CC5CN(c6ccc(C(=O)NC7CCC(=O)NC7=O)cc6)C5)CC4)cc3)CC2)cc1Cl (stereo not given in full)", "meas_value": "70.9 nM"}
{"compound": "N#Cc1ccc(O[C@H]2CC[C@H](NC(=O)c3ccc(N4CCN(C5CN(c6ccc7c(c6)C(=O)N(C6CCC(=O)NC6=O)C7=O)C5)CC4)cc3)CC2)cc1Cl (stereo not given in full)", "meas_value": "> 1000 nM"}
{"compound": "N#Cc1ccc(O[C@H]2CC[C@H](NC(=O)c3ccc(CCCCN4CCN(c5ccc(C(=O)NC6CCC(=O)NC6=O)cc5)CC4)cc3)CC2)cc1Cl (stereo not given in full)", "meas_value": "> 1000 nM"}
{"compound": "N#Cc1ccc(O[C@H]2CC[C@H](NC(=O)c3ccc(N4CCN(CC5CCN(c6ccc7c(c6)C(=O)N(C6CCC(=O)NC6=O)C7=O)C5)CC4)cc3)CC2)cc1Cl (stereo not given in full)", "meas_value": "> 1000 nM"}
